Here the recorded pIC50 is given for each entry.
SYSTEM: Recombinant human HSD17B13 enzyme (Homo sapiens, UniProt Q7Z5P4)
RUN_DESCRIPTION: HSD17b13 NAD(P)H-Glo biochemical assay
CONDITIONS: 50 uM estradiol, 1 mM NAD+, NAD(P)H-Glo luminescence; read-out: HSD17β13 IC50
pIC50: −log10 of the molar value.

COMPOUND: Nc1ccc(-c2ccc(-n3ncc4cc(F)c(O)cc43)cc2)cc1
pIC50: 6.00 to 7.00
//
COMPOUND: CC(C)C1(C)CCN(c2ccc(-n3ncc4cc(F)c(O)c(F)c43)cc2)CC1
pIC50: > 7.00
//
COMPOUND: CS(=O)(=O)C1CCN(c2ccc(-n3ncc4cc(F)c(O)c(F)c43)cc2)C1 (centres unmarked)
pIC50: 6.00 to 7.00

Okay, now this compound:
INPUT: Name the recorded pIC50 for "CS(=O)(=O)N1CC=C(c2ccc(-n3ncc4cc(F)c(O)c(F)c43)cc2)CC1" .
OUTPUT: > 7.00

----------
SYSTEM: Recombinant human HSD17B13 enzyme (Homo sapiens)
RUN_DESCRIPTION: HSD17b13 NAD(P)H-Glo biochemical assay
CONDITIONS: 50 uM estradiol, 1 mM NAD+, NAD(P)H-Glo luminescence; read-out: HSD17β13 IC50
pIC50: −log10 of the molar value.
RECORDED_ENDPOINT: pIC50

Examples from the recorded data:
STRUCTURE_STRING: Oc1c(F)cc2nnn(-c3ccc(N4CC5(CCOCC5)C4)nc3)c2c1F
SYSTEM: Recombinant human HSD17B13 enzyme (Homo sapiens)
pIC50: 6.00 to 7.00
//
STRUCTURE_STRING: CS(=O)(=O)N1CCN(c2ccc(-n3nnc4cc(F)c(O)c(F)c43)cn2)CC1
SYSTEM: Recombinant human HSD17B13 enzyme (Homo sapiens)
pIC50: 6.00 to 7.00
//
STRUCTURE_STRING: Oc1c(F)cc2cnn(-c3ccc(N4CCOCC4)cc3)c2c1F
SYSTEM: Recombinant human HSD17B13 enzyme (Homo sapiens)
pIC50: 6.00 to 7.00

Moving on to another compound below.
INPUT: Given the compound "CC1(C)CCN(c2ccc(-n3nnc4c(C(F)(F)F)c(F)c(O)cc43)cc2)CC1" , what is its reported pIC50?
OUTPUT: 6.00 to 7.00

----------
SYSTEM: Recombinant human HSD17B13 enzyme (Homo sapiens, UniProt Q7Z5P4)
Sequence (Q7Z5P4 20-300): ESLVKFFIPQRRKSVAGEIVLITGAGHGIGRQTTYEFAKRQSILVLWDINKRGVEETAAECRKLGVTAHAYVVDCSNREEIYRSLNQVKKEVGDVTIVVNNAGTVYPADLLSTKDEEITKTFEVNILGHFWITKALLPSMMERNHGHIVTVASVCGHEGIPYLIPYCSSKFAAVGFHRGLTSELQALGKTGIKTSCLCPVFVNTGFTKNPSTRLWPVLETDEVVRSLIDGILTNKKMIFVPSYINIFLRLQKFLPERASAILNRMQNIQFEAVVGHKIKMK
RUN_DESCRIPTION: HSD17b13 NAD(P)H-Glo biochemical assay
CONDITIONS: 50 uM estradiol, 1 mM NAD+, NAD(P)H-Glo luminescence; read-out: HSD17β13 IC50
Procedure: Example B-1: HSD17b13 NAD(P)H-Glo Biochemical Assay Recombinant human HSD17B13 enzyme. Substrate: estradiol (Sigma β-Estradiol E8875), 100 mM in DMSO. Cofactor: NAD+ Grade I free acid (Sigma 10127965001), 20 mM in H2O. […] Enzymatic activity detected by NAD(P)H-Glo™ Detection System (Promega G9062). […] HSD17b13 enzyme was diluted in 1× assay buffer to the desired enzyme concentration based on the specific activity of the enzyme lot. […] After incubating for 1 hour at RT, luminescence was measured.
IC50 values by entry

Use the examples below as a reference point.
STRUCTURE_STRING: Oc1c(F)cc2nnn(-c3ccc(N4CCOC[C@@H]4c4ccccc4)cc3)c2c1F
IC50: 100 to 1000 nM
--
STRUCTURE_STRING: C[C@@H]1CN(c2ccc(-n3ncc4cc(F)c(O)c(F)c43)cc2)C[C@H](C)O1
IC50: < 100 nM
--
STRUCTURE_STRING: Oc1c(F)cc2cnn(-c3ccc(N4CCC(F)(F)CC4)cc3)c2c1F
IC50: < 100 nM
--
STRUCTURE_STRING: CC1(C)CCN(c2ccc(-n3nnc4cc(F)c(O)cc43)cc2)CC1
IC50: < 100 nM
--
STRUCTURE_STRING: CS(=O)(=O)N1CCN(c2ccc(-n3ncc4c(C(F)(F)F)c(F)c(O)cc43)cc2)CC1
IC50: 100 to 1000 nM
--
STRUCTURE_STRING: CC1(C)CCN(c2ccc(-n3c(Cl)nc4cc(F)c(O)c(F)c43)cc2)CC1
IC50: 100 to 1000 nM

INPUT: IC50 lookup needed for "COc1nn(-c2ccc(N3CCC(C)(C)CC3)cc2)c2c(F)c(O)c(F)cc12" , thanks.
OUTPUT: 100 to 1000 nM

INPUT: And then "Oc1c(F)cc2cnn(-c3ccc(-c4cccnc4)cc3)c2c1F" , what is it?
OUTPUT: < 100 nM

Ref: patent US20240083853A1
